Reference for the values: the supplement of paper PMC7877785

Experiment: self-splicing fitness, log relative to wild type (ln ratio); higher = more splicing; Tetrahymena group I intron in knt gene, E. coli kanamycin selection, DiMSum; sequences stand for … in CUCUCU…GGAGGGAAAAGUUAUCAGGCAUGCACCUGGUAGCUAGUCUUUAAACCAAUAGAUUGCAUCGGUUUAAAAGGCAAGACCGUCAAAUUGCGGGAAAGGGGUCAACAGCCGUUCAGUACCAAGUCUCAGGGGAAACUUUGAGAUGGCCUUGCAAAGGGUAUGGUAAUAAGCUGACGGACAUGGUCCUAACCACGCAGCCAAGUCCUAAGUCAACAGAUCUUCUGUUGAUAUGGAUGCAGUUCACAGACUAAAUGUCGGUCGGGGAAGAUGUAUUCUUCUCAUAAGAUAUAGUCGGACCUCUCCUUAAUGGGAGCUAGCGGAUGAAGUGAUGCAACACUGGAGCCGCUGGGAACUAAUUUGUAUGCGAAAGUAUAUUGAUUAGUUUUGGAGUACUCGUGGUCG;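 further: selection with 25 µg/mL kanamycin versus none on LB agar overnight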
Details: 30 °C
MEASURE: self-splicing fitness (ln)
Enter a number only.

[[record]]
macromolecule_sequence = "UUAGAGCAAUAUUACGUUGA"
obs_value = -2.03


// self-splicing fitness (ln) lookup, sequence = `AAUCAGCAAUAUUACGACCU` , result: 0.207

// self-splicing fitness (ln) lookup, sequence = `GGGGAGCAAUAUUACGAUGC` , result: -1.06

// self-splicing fitness (ln) lookup, sequence = `ACACAGCAAUAUUACGUACG` , result: -1.19

// self-splicing fitness (ln) lookup, sequence = `GUGGAGCAAUAUUACGUAGA` , result: -2.11

// self-splicing fitness (ln) lookup, sequence = `UAGUAGCAAUAUUACGCGAU` , result: -2.23

###

Assay: self-splicing fitness, log relative to wild type (ln ratio); higher = more splicing; Tetrahymena group I intron in knt gene, E. coli kanamycin selection, DiMSum; sequences stand for … in CUCUCU…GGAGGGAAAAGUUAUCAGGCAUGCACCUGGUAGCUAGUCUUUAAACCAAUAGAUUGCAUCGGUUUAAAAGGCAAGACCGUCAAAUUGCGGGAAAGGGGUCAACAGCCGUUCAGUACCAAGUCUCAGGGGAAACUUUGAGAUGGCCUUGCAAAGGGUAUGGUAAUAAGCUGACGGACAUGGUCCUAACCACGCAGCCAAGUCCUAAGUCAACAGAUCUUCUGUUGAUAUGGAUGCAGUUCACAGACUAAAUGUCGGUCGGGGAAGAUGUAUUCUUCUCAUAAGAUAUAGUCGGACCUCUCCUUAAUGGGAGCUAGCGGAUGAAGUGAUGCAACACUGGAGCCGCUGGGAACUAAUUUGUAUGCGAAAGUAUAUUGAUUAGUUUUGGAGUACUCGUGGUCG
Conditions: 37 °C
MEASURE: self-splicing fitness (ln)
Enter a number only.

These recorded examples may help you get a feel for the data.
[[record]]
macromolecule_sequence = "UGCUAGCAAUAUUACGCCCU"
obs_value = -0.338

[[record]]
macromolecule_sequence = "UCGCAGCAAUAUUACGACUU"
obs_value = -0.512

[[record]]
macromolecule_sequence = "GUCCAGCAAUAUUACGGGUA"
obs_value = 0.14


// self-splicing fitness (ln) lookup, sequence = `GAGGAGCAAUAUUACGCUCU` , result: -1.73

###

Test: self-splicing fitness, log relative to wild type (ln ratio); higher = more splicing; Tetrahymena group I intron in knt gene, E. coli kanamycin selection, DiMSum; sequences stand for … in CUCUCU…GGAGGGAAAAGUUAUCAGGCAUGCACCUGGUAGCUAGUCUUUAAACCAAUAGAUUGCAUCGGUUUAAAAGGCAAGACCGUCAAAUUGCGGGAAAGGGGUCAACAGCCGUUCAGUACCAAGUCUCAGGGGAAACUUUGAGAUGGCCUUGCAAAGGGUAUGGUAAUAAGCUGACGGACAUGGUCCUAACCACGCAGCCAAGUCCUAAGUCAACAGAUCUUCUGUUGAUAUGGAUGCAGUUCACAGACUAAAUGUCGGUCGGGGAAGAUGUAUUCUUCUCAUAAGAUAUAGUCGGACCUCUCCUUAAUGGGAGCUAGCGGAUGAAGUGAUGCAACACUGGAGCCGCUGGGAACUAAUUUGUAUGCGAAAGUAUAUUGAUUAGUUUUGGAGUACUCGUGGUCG
Settings: 30 °C
MEASURE: self-splicing fitness (ln)
Enter a number only.

These recorded examples may help you get a feel for the data.
[[record]]
macromolecule_sequence = "GGCUAGCAAUAUUACGCCAA"
obs_value = -2

[[record]]
macromolecule_sequence = "ACGUAGCAAUAUUACGACGC"
obs_value = -0.35

[[record]]
macromolecule_sequence = "UCAUAGCAAUAUUACGGCGA"
obs_value = -0.178


// self-splicing fitness (ln) lookup, sequence = `GAUGAGCAAUAUUACGCAGA` , result: -3.98

// self-splicing fitness (ln) lookup, sequence = `CGACAGCAAUAUUACGCUCU` , result: -1.69

// self-splicing fitness (ln) lookup, sequence = `UGAUAGCAAUAUUACGAAUG` , result: -1.19

// self-splicing fitness (ln) lookup, sequence = `UACAAGCAAUAUUACGGAAA` , result: -2.07

// self-splicing fitness (ln) lookup, sequence = `GCCGAGCAAUAUUACGCACC` , result: -1.96

// self-splicing fitness (ln) lookup, sequence = `AACAAGCAAUAUUACGUCAC` , result: -3.77

// self-splicing fitness (ln) lookup, sequence = `CGUGAGCAAUAUUACGCCAA` , result: -3.41

// self-splicing fitness (ln) lookup, sequence = `UAUAAGCAAUAUUACGUUCC` , result: -1.83

// self-splicing fitness (ln) lookup, sequence = `AAUAAGCAAUAUUACGCAGU` , result: -3.08

// self-splicing fitness (ln) lookup, sequence = `AAGGAGCAAUAUUACGUAAU` , result: -3.8
